meta.source: ChEMBL document CHEMBL1773062

assayedSystem: Delta-type opioid receptor (Homo sapiens)
Sequence (P41143 whole entry): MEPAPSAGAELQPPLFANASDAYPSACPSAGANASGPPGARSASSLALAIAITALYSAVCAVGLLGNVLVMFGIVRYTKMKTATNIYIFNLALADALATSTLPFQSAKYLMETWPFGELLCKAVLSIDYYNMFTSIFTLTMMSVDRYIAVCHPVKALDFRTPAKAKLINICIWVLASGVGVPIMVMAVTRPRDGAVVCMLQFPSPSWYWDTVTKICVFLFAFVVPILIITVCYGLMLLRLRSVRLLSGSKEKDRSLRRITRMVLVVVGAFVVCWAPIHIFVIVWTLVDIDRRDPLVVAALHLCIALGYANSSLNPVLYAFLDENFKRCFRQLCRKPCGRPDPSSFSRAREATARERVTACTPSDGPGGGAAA
protocolDescription: Displacement of [3H]DADLE from delta opioid receptor
quantity: Ki

1. COC(=O)[C@@H]1C[C@H](OC(C)=O)C(=O)[C@H]2[C@@]1(C)CC[C@H]1C(=O)O[C@H](C3=CC4OC3C3C5OC(c6c5c5ccccc5c(=O)c5ccccc65)C43)C[C@]21C (mixture of isomers) : > 5.2 µM
2. CCOC(=O)c1ccc([C@@H]2C[C@]3(C)[C@H]4C(=O)[C@@H](OC(C)=O)C[C@@H](C(=O)OC)[C@]4(C)CC[C@H]3C(=O)O2)cc1C(=O)OCC : > 5 µM
3. COC(=O)[C@@H]1C[C@H](OC(C)=O)C(=O)[C@H]2[C@@]1(C)CC[C@H]1C(=O)O[C@H](c3ccc4ccccc4c3)C[C@]21C : > 5 µM
4. CCOC(=O)C1=C(C(=O)OCC)C2OC1C=C2[C@@H]1C[C@]2(C)[C@H]3C(=O)[C@@H](OC(C)=O)C[C@@H](C(=O)OC)[C@]3(C)CC[C@H]2C(=O)O1 (stereo not given in full) : 2.26 µM
5. COC(=O)[C@@H]1C[C@H](OC(C)=O)C(=O)[C@H]2[C@@]1(C)CC[C@H]1C(=O)O[C@H](C3=CC4OC3C3C4C4OC3(C)c3c4c4ccccc4c(=O)c4ccccc34)C[C@]21C (stereo not given in full) : > 5 µM

---

pKi: −log10 of the molar value.
# pKi measurements, system: UniProt:P41145
# Sequence (P41145 whole entry): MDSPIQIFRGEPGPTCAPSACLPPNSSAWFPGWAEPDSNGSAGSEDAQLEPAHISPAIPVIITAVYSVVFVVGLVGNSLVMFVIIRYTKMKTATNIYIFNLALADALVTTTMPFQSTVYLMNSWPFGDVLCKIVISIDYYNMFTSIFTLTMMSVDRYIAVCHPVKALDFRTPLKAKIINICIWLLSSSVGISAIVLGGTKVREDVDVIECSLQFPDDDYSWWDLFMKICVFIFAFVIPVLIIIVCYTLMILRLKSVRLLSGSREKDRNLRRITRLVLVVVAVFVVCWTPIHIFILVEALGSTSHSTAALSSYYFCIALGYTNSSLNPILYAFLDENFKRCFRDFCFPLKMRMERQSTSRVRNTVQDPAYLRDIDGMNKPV
quantity: pKi

1) CCOC(=O)c1ccc([C@@H]2C[C@]3(C)[C@H]4C(=O)[C@@H](OC(C)=O)C[C@@H](C(=O)OC)[C@]4(C)CC[C@H]3C(=O)O2)cc1C(=O)OCC : 6.64
2) COC(=O)[C@@H]1C[C@H](OC(C)=O)C(=O)[C@H]2[C@@]1(C)CC[C@H]1C(=O)O[C@H](C3=CC4OC3C3C4C4OC3(C)c3c4c4ccccc4c(=O)c4ccccc34)C[C@]21C (stereo partly drawn) : 6.54

---

protocolDescription: Selectivity ratio of Ki for mu opioid receptor to Ki for kappa opioid receptor
We begin with a simple list: items and their reported Ratio Ki.
quantity: Ratio Ki

1. COC(=O)[C@@H]1C[C@H](OC(C)=O)C(=O)[C@H]2[C@@]1(C)CC[C@H]1C(=O)O[C@H](C3=CC4OC3C3C4C4OC3(C)c3c4c4ccccc4c(=O)c4ccccc34)C[C@]21C (stereo not given in full) : > 6
2. COC(=O)c1ccc([C@@H]2C[C@]3(C)[C@H]4C(=O)[C@@H](OC(C)=O)C[C@@H](C(=O)OC)[C@]4(C)CC[C@H]3C(=O)O2)cc1C(=O)OC : > 8
3. COC(=O)[C@@H]1C[C@H](OC(C)=O)C(=O)[C@H]2[C@@]1(C)CC[C@H]1C(=O)O[C@H](c3ccc4ccccc4c3)C[C@]21C : > 0.4
4. COC(=O)C1=C(C(=O)OC)C2OC1C=C2[C@@H]1C[C@]2(C)[C@H]3C(=O)[C@@H](OC(C)=O)C[C@@H](C(=O)OC)[C@]3(C)CC[C@H]2C(=O)O1 (stereo not given in full) : > 80
5. COC(=O)[C@@H]1C[C@H](OC(C)=O)C(=O)[C@H]2[C@@]1(C)CC[C@H]1C(=O)O[C@H](C3=CC4OC3C3C5OC(c6c5c5ccccc5c(=O)c5ccccc65)C43)C[C@]21C (mixture of isomers) : > 0.2
